# System: K4 kissing-loop RNA reporter;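 note: bound reporter read as fluorescence of individual clusters on recovered sequencing chips by microscopy, with normalized cluster intensities fitted with a binding model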
# Experiment: apparent KD of K4 kissing-loop reporter; higher = weaker reporter binding
# Cond: Eterna round: R107; input ligand: tryptophan 2.4 mM
Assay metric: apparent KD of K4 kissing-loop reporter (nM)
Field: numeric (nM). Do not append units.

Recorded results for 3 sequences are shown here.
[[record]]
seq_string = "GUUACGCAUGGAAGGAGCGCAGGCUCAACAAAUAGCUCAGUGAUGUUGAGCAUAUUAAAUCUGCAGGUAGGUCGCCAUGUGUAAC [Ex Arginine B K4 24]"
tgt = "K4 kissing-loop RNA reporter"
assay_metric = "apparent KD of K4 kissing-loop reporter"
measurement = 581

[[record]]
seq_string = "CUCGAGUGAUGUUCGAUUAUGUAUACAGAUACCAGUGAAUUUUAACACCCUUGGCAGCUGGUAGAAUCAUUGUAAUUUUAACUAG [JR_ExcTheophyA_Sub001]"
tgt = "K4 kissing-loop RNA reporter"
assay_metric = "apparent KD of K4 kissing-loop reporter"
measurement = 150

[[record]]
seq_string = "UGUAUGGACUGAAGGAGCGGUAUAUAAACUGAGUGAUGUUCGGCAGAUAAAGGCGCAAGCCACCAGGUAGGUCGCAGUCCAUACU [KL-SSArg B2]"
tgt = "K4 kissing-loop RNA reporter"
assay_metric = "apparent KD of K4 kissing-loop reporter"
measurement = 342


--- query ---
Memo: UGAUUUAACUGAAGGAGCGGCAAGAGAGAAGGAAAUAUAGUGAUGUUAUAUAAGAGAGAGAGCCAGGUAGGUCGCAGAGGGAGGA [ExArgB.E] , reported apparent KD of K4 kissing-loop reporter: 137
